These entries and their values trace back to patent US11365192B2.

Target: human CYP4A11 (Homo sapiens (Human), UniProt Q02928)
Sequence (Q02928 5-519): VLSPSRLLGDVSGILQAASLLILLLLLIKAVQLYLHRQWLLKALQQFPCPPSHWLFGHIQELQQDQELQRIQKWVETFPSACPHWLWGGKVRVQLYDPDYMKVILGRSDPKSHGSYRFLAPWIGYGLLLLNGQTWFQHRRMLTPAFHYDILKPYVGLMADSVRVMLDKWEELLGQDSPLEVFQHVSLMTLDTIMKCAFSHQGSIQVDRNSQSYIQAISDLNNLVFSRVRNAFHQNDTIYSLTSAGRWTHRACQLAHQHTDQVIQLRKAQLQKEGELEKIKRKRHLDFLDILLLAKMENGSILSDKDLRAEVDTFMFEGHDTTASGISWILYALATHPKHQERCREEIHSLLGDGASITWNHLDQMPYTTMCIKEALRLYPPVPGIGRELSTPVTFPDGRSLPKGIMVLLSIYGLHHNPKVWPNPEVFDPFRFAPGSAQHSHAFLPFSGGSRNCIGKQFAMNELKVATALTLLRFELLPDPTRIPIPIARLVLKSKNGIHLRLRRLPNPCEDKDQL
Assay: Inhibition test against 20-HETE producing enzyme CYP4A11 (luciferine derivative, luminescence)
Format: biochemical
Details: human CYP4A11, luciferine derivative, luminescence
ASSAY_ENDPOINT: log10(IC50) (log10 of the value in nM)
Recall that a logarithmic scale is used here: each number is log10 of IC50 in nM.

Recorded log10(IC50) for O=C(O)[C@H]1CCc2ccc(COc3ccc(-c4ccn[nH]4)nc3)cc2C1 [Example 69-1-2] on human CYP4A11 (Homo sapiens (Human), UniProt Q02928) was 1.40

Observed log10(IC50), human CYP4A11 (Homo sapiens (Human), UniProt Q02928), C[C@@H](NC(=O)c1cccc(COc2ccc(-c3ccn[nH]3)nc2)c1)C(=O)O [Example 45-10] : 2.26

Log: human CYP4A11 (Homo sapiens (Human), UniProt Q02928), compound CC(C)(Oc1cccc(CCCOc2ccc(-c3ccn[nH]3)nc2)n1)C(=O)O [Example 71-40] , log10(IC50) = 2.65

Result for CC(=O)N1CC(CCCCCCCCOc2ccc(-c3ccn[nH]3)nc2)(C(=O)O)C1 [Example 71-44] , tested on human CYP4A11 (Homo sapiens (Human), UniProt Q02928), log10(IC50): 3.00

Noted log10(IC50) for CC(C)(COc1cccc(COc2ccc(-c3ccn[nH]3)nc2)n1)C(=O)O [Example 75-6] , tested on human CYP4A11 (Homo sapiens (Human), UniProt Q02928): 2.26

Bench note, human CYP4A11 (Homo sapiens (Human), UniProt Q02928): NC(=O)c1cc(COc2ccc(-c3ccn[nH]3)nc2)ccn1 [Example 44-7] , log10(IC50) reads 3.58

Bench note, human CYP4A11 (Homo sapiens (Human), UniProt Q02928): entry CC(C)(CCNC(=O)c1cc(COc2ccc(-c3ccn[nH]3)nc2)ccn1)C(=O)O [Example 45-15] , its log10(IC50) = 3.08

Measured on human CYP4A11 (Homo sapiens (Human), UniProt Q02928), O=C(O)C1CCc2cc(CCOc3ccc(-c4ccn[nH]4)nc3)ccc2O1 (centres unmarked) [Example 71-7] has a documented log10(IC50) of 1.91

====

Target: UniProtKB Q02928
Experiment: Inhibition test against 20-HETE producing enzyme CYP4A11 (luciferine derivative, luminescence)
Assay type: biochemical
Conditions: E. coli membrane fraction expressing human CYP4A11, 60 μM luciferine derivative, room temperature 60 minutes
Checkbox rule: IC50 lower than 30 nM = TRUE; IC50 not lower than 30 nM = FALSE.

Task item: Does O=C(O)c1ccc(-c2cccc(COc3ccc(-c4ccn[nH]4)nc3)c2)nc1 [Example 18-2] have IC50 strictly under 30 nM?
Reply: TRUE

Task item: Is it true that IC50 reported for O=C(O)Cc1ccc(CCOc2ccc(-c3ccn[nH]3)nc2)cc1 [Example 1-13] is less than 30 nM?
Reply: FALSE

Task item: Consider CC(C)(Oc1cccc(COc2ccc(-c3ccn[nH]3)nc2)c1)C(=O)O [Example 18-5] . Does its IC50 lie strictly below 30 nM?
Reply: FALSE

Task item: Does the reported IC50 of the following molecule sit strictly below 30 nM? CC(=O)N1CC(O)(c2cccc(COc3ccc(-c4ccn[nH]4)nc3)c2)C1 [Example 52-2]
Reply: FALSE

Task item: Answer whether the molecule O=S(=O)(NCc1cccc(COc2ccc(-c3ccn[nH]3)nc2)c1)C(F)(F)F [Example 65-1] has IC50 strictly less than 30 nM
Reply: TRUE
